Tested System: His6-p37AUF1(30-287) (human, UniProt Q14103-4 30-287)
Sequence (Q14103 other isoform, or with tags, fused parts or gaps): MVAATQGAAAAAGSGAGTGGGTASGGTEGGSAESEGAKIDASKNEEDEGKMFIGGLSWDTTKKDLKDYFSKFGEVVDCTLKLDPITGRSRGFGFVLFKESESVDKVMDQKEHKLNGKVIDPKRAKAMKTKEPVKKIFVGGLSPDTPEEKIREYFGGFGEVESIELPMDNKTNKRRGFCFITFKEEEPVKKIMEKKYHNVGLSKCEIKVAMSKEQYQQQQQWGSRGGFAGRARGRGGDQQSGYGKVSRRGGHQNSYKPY
Assay Comment: fluorescence anisotropy; Anisotropy: 10 mM Tris-HCl pH 8.0, 100 mM KCl (50 mM for Fl-ARE2), 0.5 mM EDTA, 0.1 ug/ul acetylated BSA, 1 ug/ul heparin, 2 mM DTT, 25 C, RNA 0.2-0.4 nM; EMSA: same with 100 mM KCl, 10% glycerol, 1 nM RNA, on ice, UV crosslinked
Experimental Setup: protein: recombinant; chain copies: 2; label: 3' fluorescein
Observable: pKd
# reply with the number alone; pKd is -log10 of concentration in mol/L

Need pKd, item CCCCUGGCUCACAAAUACCUUAUUUAUUUAUUUAG (ssRNA) [ARE1-Fl]
7.57

Cited source: paper PMC12147176
